- Method Notes: Visually estimated solubility of Form 1 in an array of solvents
- Assay type: physicochemical
- Conditions: 2-propanol, 40 °C, organic solvent or mixture, thermodynamic from solid; read-out: Solubility at 40° C.
Value Kind: solubility

Query: solubility; subject: [2H]C1([2H])C(=O)NC(=O)[C@@]([2H])(N2Cc3c(N)cccc3C2=O)C1([2H])[2H] (single isomer, unassigned) [Form 1]
< 1000 µg/mL

* * *

- Method Notes: Visually estimated solubility of Form 1 in an array of solvents
- Format: physicochemical
- Conditions: organic solvent or mixture, thermodynamic from solid; Acetonitrile: 10% vol. Water; 20° C.; read-out: Solubility at RT
Value Kind: solubility

Could you tell me which solubility is on file for [2H]C1([2H])C(=O)NC(=O)[C@@]([2H])(N2Cc3c(N)cccc3C2=O)C1([2H])[2H] (single isomer, unassigned) [Form 1] ?
14 to 17 mg/mL

* * *

- Method Notes: Visually estimated solubility of Form 1 in an array of solvents
- Assay type: physicochemical
- Conditions: organic solvent or mixture, thermodynamic from solid; Acetonitrile: 10% vol. DMSO; 20° C.; read-out: Solubility at RT
Value Kind: solubility

Field request: solubility | item: [2H]C1([2H])C(=O)NC(=O)[C@@]([2H])(N2Cc3c(N)cccc3C2=O)C1([2H])[2H] (single isomer, unassigned) [Form 1]
10 to 30 mg/mL

* * *

- Method Notes: Visually estimated solubility of Form 1 in an array of solvents
- Type: physicochemical
- Conditions: thermodynamic from solid; water and common organic solvents; 20° C.; read-out: Solubility
- Description: Solubility of Form 1 was visually estimated in an array of different solvents. […] Where applicable, the undissolved solids were analyzed by PXRD to verify crystal form. […] Solubility of Form 1 was visually estimated in an array of diverse solvents. […] Where applicable, the undissolved solids were analyzed by PXRD to verify crystal form. […]
Value Kind: solubility

# query: solubility of entry [2H]C1([2H])C(=O)NC(=O)[C@@]([2H])(N2Cc3c(N)cccc3C2=O)C1([2H])[2H] (single isomer, unassigned) [Form 1]
< 6000 µg/mL

* * *

- Method Notes: Visually estimated solubility of Form 1 in an array of solvents
- Type: physicochemical
- Conditions: organic solvent or mixture, thermodynamic from solid; 2-Propanol: 10% vol. DMSO; 20° C.; read-out: Solubility at RT
Value Kind: solubility

Consider the compound [2H]C1([2H])C(=O)NC(=O)[C@@]([2H])(N2Cc3c(N)cccc3C2=O)C1([2H])[2H] (single isomer, unassigned) [Form 1] and give its measured solubility.
1000 to 10000 µg/mL

* * *

- Method Notes: Visually estimated solubility of Form 1 in an array of solvents
- Type: physicochemical
- Conditions: organic solvent or mixture, thermodynamic from solid; Acetonitrile; 20° C.; read-out: Solubility at RT
Value Kind: solubility

Which solubility reading was recorded for the compound [2H]C1([2H])C(=O)NC(=O)[C@@]([2H])(N2Cc3c(N)cccc3C2=O)C1([2H])[2H] (single isomer, unassigned) [Form 1] ?
1000 to 6000 µg/mL

* * *

- Method Notes: Visually estimated solubility of Form 1 in an array of solvents
- Assay type: physicochemical
- Conditions: organic solvent or mixture, thermodynamic from solid; Acetone; 20° C.; read-out: Solubility at RT
Value Kind: solubility

Given [2H]C1([2H])C(=O)NC(=O)[C@@]([2H])(N2Cc3c(N)cccc3C2=O)C1([2H])[2H] (single isomer, unassigned) [Form 1] , state its recorded solubility.
1000 to 6000 µg/mL
